Tested on: CAF#3 (primary prostate cancer-associated fibroblasts of myCAF-like type)
Test summary: drug sensitivity score (DSS2, normalised partial AUC of dose-response, 72 h CellTiter-Glo viability) (DSS (dimensionless)); higher = more sensitive (stronger growth inhibition / cytotoxicity); extreme values may be limits of the assay
Entries and their drug sensitivity score
Enter a number only.

| Compound | Parameter | Value reported |
| --- | --- | --- |
| C[C@@H]1COCCN1c1cc(C2([S@](C)(=N)=O)CC2)nc(-c2cc[nH]c3nccc2-3)n1 [Ceralasertib] (tested concentration range 2.5-25000 nM) | drug sensitivity score | 6.7 |
| C=C(c1ccc(C(=O)O)cc1)c1cc2c(cc1C)C(C)(C)CCC2(C)C [Bexarotene] (tested concentration range 1-10000 nM) | drug sensitivity score | 0 |
| C[C@H]1Oc2cc(cnc2N)-c2c(nn(C)c2C#N)CN(C)C(=O)c2ccc(F)cc21 [Lorlatinib] (tested concentration range 0.1-1000 nM) | drug sensitivity score | 0 |
| NC1(c2ccc(-c3nc4ccn5c(=O)[nH]nc5c4cc3-c3ccccc3)cc2)CCC1 [MK-2206] (tested concentration range 0.1-1000 nM) | drug sensitivity score | 4 |
| COC(=O)c1ccc([C@H]2c3[nH]c4ccccc4c3C[C@H](C(=O)OC)N2C(=O)CCl)cc1 [RSL3] (tested concentration range 1-10000 nM) | drug sensitivity score | 2.5 |

Given item Nc1cccc2c1CN(C1CCC(=O)NC1=O)C2=O (stereo unspecified) [Lenalidomide] (tested concentration range 10-100000 nM) , the value recorded as its drug sensitivity score is 0

###

Test system: CAF#2 (primary prostate cancer-associated fibroblasts of iCAF-like type)
Test summary: drug sensitivity score (DSS2, normalised partial AUC of dose-response, 72 h CellTiter-Glo viability) (DSS (dimensionless)); higher = more sensitive (stronger growth inhibition / cytotoxicity); extreme values may be limits of the assay
Entries and their drug sensitivity score
Enter a number only.

| Compound | Assay target | Value reported |
| --- | --- | --- |
| O=c1[nH]cc(F)c(=O)[nH]1 [Fluorouracil] (tested concentration range 1-10000 nM) | CAF#2 | 3.6 |
| Cc1c(C(=O)Nc2ccc(N3C[C@@H](C)O[C@@H](C)C3)nc2)cccc1-c1ccc(OC(F)(F)F)cc1 [Sonidegib] (tested concentration range 1-10000 nM) | CAF#2 | 1.7 |

Given item O=C(/C=C\n1cnc(-c2cc(C(F)(F)F)cc(C(F)(F)F)c2)n1)NNc1cnccn1 [Selinexor] (tested concentration range 1-10000 nM) , the value recorded as its drug sensitivity score is 21.3

###

System: CAF#4 (primary prostate cancer-associated fibroblasts of iCAF-like type)
Test summary: drug sensitivity score (DSS2, normalised partial AUC of dose-response, 72 h CellTiter-Glo viability) (DSS (dimensionless)); higher = more sensitive (stronger growth inhibition / cytotoxicity); extreme values may be limits of the assay
Entries and their drug sensitivity score
Enter a number only.

| Compound | drug sensitivity score |
| --- | --- |
| CC(C)(C#N)c1cc(Cn2cncn2)cc(C(C)(C)C#N)c1 [Anastrozole] (tested concentration range 1-10000 nM) | 0 |
| Cc1ncc(-c2ccnc(Nc3ccc(S(C)(=O)=O)cc3)n2)n1C(C)C [AZD-5438] (tested concentration range 1-10000 nM) | 6.8 |
| O=C(/C=C/c1cccnc1)NCCCCC1CCN(C(=O)c2ccccc2)CC1 [Daporinad] (tested concentration range 0.1-1000 nM) | 23.6 |
| O=c1[nH]c(C2CCCN2)nc2c1oc1ccc(Cl)cc12 (stereo unspecified) (tested concentration range 1-10000 nM) | 0 |
| C[C@]12C=CC(=O)C=C1CC[C@@H]1[C@@H]2[C@@H](O)C[C@@]2(C)[C@H]1CC[C@]2(O)C(=O)CO [Prednisolone] (tested concentration range 1-10000 nM) | 0 |

Field: next compound
Given item CCCCCCCCc1ccc(CCC(N)(CO)CO)cc1 [Fingolimod] (tested concentration range 1-10000 nM) , the value recorded as its drug sensitivity score is 6
